# Condition Details: pH 7.5
Parameter Measured: Log P

Compound	Parameter Measured	Observed Value
CCOC(=O)C(C#N)=C(NC(C)CSC)c1ccc(C)nc1Cl (mixture of isomers)	Log P	3.09

I: CCOC(=O)C(C#N)=C(NC(C)CC#N)c1cccnc1Cl (centres unmarked)
II: CCOC(=O)C(C#N)=C(NC(C)c1ccc(Cl)cc1)c1cccnc1Cl (centres unmarked) [Compound 345]
// compare measured Log P between I and II ; output the lower one Answer with the label corresponding to your selection.
I
(I: 2.13, II: 3.63)

----------
# Condition Details: pH 2.3
Parameter Measured: Log P

Molecule	Log P
CCOC(=O)C(C#N)=C(NC[Si](C)(C)C)c1cccnc1Cl [Compound 1085]	3.59
COC(=O)C(C#N)=C(NC(C)C#N)c1cccnc1Cl (centres unmarked) [Compound 869]	1.85
CC(C)C(C)NC(=C(C#N)C(=O)NC1CS(=O)(=O)C1)c1cccnc1Cl (centres unmarked) [Compound 1469]	2.28

A: COC(=O)C(C#N)=C(NCC1OCCO1)c1cccnc1Cl [Compound 14]
B: CC(C)C(C)NC(=C(C#N)C(=O)NC1CC1)c1cccnc1Cl (centres unmarked) [Compound 1451]
// compare measured Log P between A and B ; output the lower one Answer with the label corresponding to your selection.
A
